- Method: Multi-component pharmacokinetics in rat plasma after oral administration of RB, RPA or RB-RPA extracts (UPLC-HRMS, non-compartmental analysis)
- Assay type: in vivo, Sprague-Dawley rats
- Assay Setup: rat plasma, oral RB single extract 45 g-herb/kg, mean ± SD, n = 7
Property Measured: Cmax (ng/mL)
Answer format: numeric, ng/mL implied, no suffix.

## Input If you can, please state the reported Cmax value of `CC1(C)CC[C@@]2(CO)C(=C3C=C[C@@H]4[C@@]5(C)CC[C@H](O)[C@@](C)(CO)[C@@H]5CC[C@@]4(C)[C@]3(C)C[C@H]2O)C1` .
## Output 16.51

## Input Next record, please: CC(=O)OC[C@H]1O[C@@H](O[C@H]2[C@@H](O)[C@@H](C)O[C@@H](O[C@H]3CC[C@@]4(C)[C@@H](CC[C@]5(C)[C@@H]4C=CC46OCC7(CCC(C)(C)C[C@H]74)[C@@H](O)C[C@]65C)[C@]3(C)CO)[C@@H]2O)[C@H](O)[C@@H](O)[C@@H]1O (stereo partly drawn)
## Output 29.39

## Input Next record, please: `C[C@H]1O[C@@H](O[C@H]2CC[C@@]3(C)[C@@H](CC[C@]4(C)[C@@H]3C=CC3=C5CC(C)(C)CC[C@]5(CO)[C@H](O)C[C@]34C)[C@]2(C)CO)[C@H](O)[C@@H](O[C@@H]2O[C@H](CO)[C@@H](O)[C@H](O)[C@H]2O)[C@H]1O`
## Output 22.33

###

- Method: Multi-component pharmacokinetics in rat plasma after oral administration of RB, RPA or RB-RPA extracts (UPLC-HRMS, non-compartmental analysis)
- Assay type: in vivo, Sprague-Dawley rats
- Assay Setup: rat plasma, oral RB-RPA mixed extracts (45 g-herb/kg RB + 45 g-herb/kg RPA), mean ± SD, n = 7
I'd appreciate it if you could supply Cmax values for the items below.
Answer format: numeric, ng/mL implied, no suffix.

## Input If you can, please state the reported Cmax value of CC1(C)CC[C@]23CO[C@@]4(C=C[C@@H]5[C@@]6(C)CC[C@H](O)C(C)(C)[C@@H]6CC[C@@]5(C)[C@]4(C)C[C@@H]2O)[C@@H]3C1 [Saikogenin E] .
## Output 13.41

## Input Next record, please: C[C@H]1O[C@@H](O[C@H]2CC[C@@]3(C)[C@@H](CC[C@]4(C)[C@@H]3C=CC3=C5CC(C)(C)CC[C@]5(CO)[C@H](O)C[C@]34C)[C@]2(C)CO)[C@H](O)[C@@H](O)[C@H]1O [Prosaikogenin D]
## Output 8.53

## Input Next record, please: C[C@H]1O[C@@H](O[C@H]2CC[C@@]3(C)[C@@H](CC[C@]4(C)[C@@H]3C=CC3=C5CC(C)(C)CC[C@]5(CO)[C@H](O)C[C@]34C)[C@]2(C)CO)[C@H](O)[C@@H](O[C@@H]2O[C@H](CO)[C@@H](O)[C@H](O)[C@H]2O)[C@H]1O [Saikosaponin B2]
## Output 28.19

## Input Next record, please: C[C@@H]1O[C@@H](O[C@@H]2[C@H](O)[C@@H](O)[C@H](O[C@H]3CC[C@@]4(C)C(CC[C@]5(C)C4C=C[C@]46OC[C@@]7(CCC(C)(C)CC74)[C@@H](O)C[C@]65C)C3(C)C)O[C@@H]2CO[C@@H]2O[C@H](CO)[C@@H](O)[C@H](O)[C@H]2O)[C@H](O)[C@H](O)[C@H]1O (stereo partly shown) [Saikosaponin C]
## Output 20.63

###

- Method: Multi-component pharmacokinetics in rat plasma after oral administration of RB, RPA or RB-RPA extracts (UPLC-HRMS, non-compartmental analysis)
- Format: in vivo, Sprague-Dawley rats
- Assay Setup: rat plasma, oral RB-RPA mixed extracts (45 g-herb/kg RB + 45 g-herb/kg RPA), mean ± SD, n = 7
Property Measured: t1/2

## Input If you can, please state the reported t1/2 value of CC(=O)OC[C@H]1O[C@@H](O[C@H]2[C@@H](O)[C@@H](C)O[C@@H](O[C@H]3CC[C@@]4(C)[C@@H](CC[C@]5(C)[C@@H]4C=CC46OCC7(CCC(C)(C)C[C@H]74)[C@@H](O)C[C@]65C)[C@]3(C)CO)[C@@H]2O)[C@H](O)[C@@H](O)[C@@H]1O (stereo partly shown) .
## Output 4.38 ± 1.27 h

## Input Next record, please: `C[C@H]1O[C@@H](O[C@H]2CC[C@@]3(C)[C@@H](CC[C@]4(C)[C@@H]3C=CC3=C5CC(C)(C)CC[C@]5(CO)[C@H](O)C[C@]34C)[C@]2(C)CO)[C@H](O)[C@@H](O)[C@H]1O`
## Output 2.98 ± 1.07 h

## Input Next record, please: `C[C@H]1O[C@@H](O[C@H]2CC[C@@]3(C)[C@@H](CC[C@]4(C)[C@@H]3C=C[C@]35OC[C@@]6(CCC(C)(C)C[C@H]63)[C@@H](O)C[C@]54C)[C@]2(C)CO)[C@H](O)[C@@H](O)[C@H]1O`
## Output 3.46 ± 0.55 h

## Input Next record, please: `CC1(C)CC[C@]23CO[C@@]4(C=C[C@@H]5[C@@]6(C)CC[C@H](O)[C@@](C)(CO)[C@@H]6CC[C@@]5(C)[C@]4(C)C[C@@H]2O)[C@@H]3C1`
## Output 6.80 ± 2.11 h

###

I'd appreciate it if you could supply tmax values for the items below.
- Method: Multi-component pharmacokinetics in rat plasma after oral administration of RB, RPA or RB-RPA extracts (UPLC-HRMS, non-compartmental analysis)
- Assay type: in vivo, Sprague-Dawley rats
- Assay Setup: rat plasma, oral administration of single extract RPA, mean ± SD, n = 7
Where a name gives a salt, the structure may show the parent alone.
Answer format: numeric, h implied, no suffix.

## Input If you can, please state the reported tmax value of CC1C2OC3(C)CC(=O)C1CC3(O)O2 (stereo not shown) [Paeonimetabolin I] .
## Output 0.75

## Input Next record, please: O=S(=O)(O)Oc1cccc(O)c1O [Pyrogallol sulfate]
## Output 2.50

## Input Next record, please: `C[C@]12C[C@@H](O)[C@@H]3C[C@@]1(O[C@@H]1O[C@H](CO)[C@@H](O)[C@H](O)[C@H]1O)[C@@]3(COC(=O)c1ccccc1)C(=O)O2`
## Output 1.25

## Input Next record, please: `C[C@@]12C[C@@]3(O)O[C@@H](O1)[C@]1(CO)[C@H]3C[C@@]12O[C@@H]1O[C@H](CO)[C@@H](O)[C@H](O)[C@H]1O`
## Output 0.75

###

I'd appreciate it if you could supply Cmax values for the items below.
- Method: Multi-component pharmacokinetics in rat plasma after oral administration of RB, RPA or RB-RPA extracts (UPLC-HRMS, non-compartmental analysis)
- Format: in vivo, Sprague-Dawley rats
- Assay Setup: male, Sprague-Dawley, rat, plasma, po, 45 g/kg, rat plasma, oral administration of mixed extracts RB-RPA, mean ± SD, n = 7; read-out: Cmax
Answer format: numeric, ng/mL implied, no suffix.

## Input If you can, please state the reported Cmax value of COC(=O)c1cc(O)c(O)c(O)c1 [Methyl gallate] .
## Output 57.6

## Input Next record, please: `C[C@@]12C[C@@]3(O)O[C@@H](O1)[C@]1(COC(=O)c4ccccc4)[C@H]3C[C@@]12O[C@@H]1O[C@H](CO)[C@@H](O)[C@H](O)[C@H]1O`
## Output 2930

###

- Method: Multi-component pharmacokinetics in rat plasma after oral administration of RB, RPA or RB-RPA extracts (UPLC-HRMS, non-compartmental analysis)
- Type: in vivo, Sprague-Dawley rats
- Assay Setup: rat plasma, oral RB-RPA mixed extracts (45 g-herb/kg RB + 45 g-herb/kg RPA), mean ± SD, n = 7
Property Measured: tmax (min)
Answer format: numeric, min implied, no suffix.

## Input If you can, please state the reported tmax value of C[C@H]1O[C@@H](O[C@@H]2CC[C@@]3(C)[C@@H](CC[C@]4(C)[C@@H]3C=C[C@]35OC[C@@]6(CCC(C)(C)C[C@H]63)[C@@H](O)C[C@]54C)[C@@]2(C)CO)[C@H](O)[C@@H](O)[C@H]1O [Prosaikogenin G] .
## Output 45

## Input Next record, please: CC1(C)CC[C@]23CO[C@@]4(C=C[C@@H]5[C@@]6(C)CC[C@H](O)C(C)(C)[C@@H]6CC[C@@]5(C)[C@]4(C)C[C@@H]2O)[C@@H]3C1 [Saikogenin E]
## Output 47.4

## Input Next record, please: CC1(C)CC[C@@]2(CO)C(=C3C=C[C@@H]4[C@@]5(C)CC[C@H](O)[C@@](C)(CO)[C@@H]5CC[C@@]4(C)[C@]3(C)C[C@H]2O)C1 [Saikogenin D]
## Output 55.2

## Input Next record, please: CC1(C)CC[C@]23CO[C@@]4(C=C[C@@H]5[C@@]6(C)CC[C@H](O)[C@@](C)(CO)[C@@H]6CC[C@@]5(C)[C@]4(C)C[C@H]2O)[C@@H]3C1 [Saikogenin G]
## Output 42.6

## Input Next record, please: CC(=O)OC[C@H]1O[C@@H](O[C@H]2[C@@H](O)[C@@H](C)O[C@@H](O[C@H]3CC[C@@]4(C)[C@@H](CC[C@]5(C)[C@@H]4C=CC46OCC7(CCC(C)(C)C[C@H]74)[C@H](O)C[C@]65C)[C@]3(C)CO)[C@@H]2O)[C@H](O)[C@@H](O)[C@@H]1O (stereo partly drawn) [Acetyl-saikosaponin D]
## Output 30

## Input Next record, please: C[C@H]1O[C@@H](O[C@H]2CC[C@@]3(C)[C@@H](CC[C@]4(C)[C@@H]3C=CC3=C5CC(C)(C)CC[C@]5(CO)[C@H](O)C[C@]34C)[C@]2(C)CO)[C@H](O)[C@@H](O[C@@H]2O[C@H](CO)[C@@H](O)[C@H](O)[C@H]2O)[C@H]1O [Saikosaponin B2]
## Output 49.8
